Target: GST-Ap-NF-kB RHD (Exaiptasia pallida (Aiptasia), UniProt A0A913YAJ5 2-422)
Sequence: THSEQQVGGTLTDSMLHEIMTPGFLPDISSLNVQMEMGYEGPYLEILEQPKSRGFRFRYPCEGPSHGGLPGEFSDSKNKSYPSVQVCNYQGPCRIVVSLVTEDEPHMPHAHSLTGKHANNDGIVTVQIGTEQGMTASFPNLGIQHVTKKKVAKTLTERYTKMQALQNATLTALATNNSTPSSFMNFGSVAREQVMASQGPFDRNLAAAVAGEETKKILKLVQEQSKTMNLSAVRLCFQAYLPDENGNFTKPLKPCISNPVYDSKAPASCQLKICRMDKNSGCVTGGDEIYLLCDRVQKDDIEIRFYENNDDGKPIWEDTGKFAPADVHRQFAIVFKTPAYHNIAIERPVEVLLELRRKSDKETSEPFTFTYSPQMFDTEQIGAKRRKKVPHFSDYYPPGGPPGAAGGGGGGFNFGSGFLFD
Experiment: protein-binding microarray (PBM); PBM: ~300 nM protein, 6 mM HEPES pH 7.8, 80 mM KCl, 0.5 mM EDTA, 0.5 mM EGTA, 6% glycerol, 35 ng/ul poly-dIdC, 1% milk, 1 h, room temperature; Ap Aiptasia and Nv Nematostella (sea anemones) / Co Capsaspora / Aq Amphimedon (sponge) / Dm Drosophila / Hu human; RHD is the Rel homology domain; high values mean tight binding
Details: dsDNA, one strand shown
Use 5 z-score as the dividing line for binding signal, with the line itself on the 1 side and lower values as -1.

construct_sequence	discrete_label
CCGATTAACATCATTCCCGGGAATGATGTTAATCGGGTCTTGATTCGCTTGACGCTGCTG	-1
CCGATTAACATCACTTTTTTCCCTGATGTTAATCGGGTCTTGATTCGCTTGACGCTGCTG	-1
CCGATTAACATCAGTACTTCCCATGATGTTAATCGGGTCTTGATTCGCTTGACGCTGCTG	-1
CCGATTAACATCAAAAATTTACCTGATGTTAATCGGGTCTTGATTCGCTTGACGCTGCTG	-1
CCGATTAACATCAGGGGATTCCATGATGTTAATCGGGTCTTGATTCGCTTGACGCTGCTG	1
CCGATTAACATCACGAAACCCCCTGATGTTAATCGGGTCTTGATTCGCTTGACGCTGCTG	1
CCGATTAACATCACAGATTTCCCTGATGTTAATCGGGTCTTGATTCGCTTGACGCTGCTG	-1
CCGATTAACATCAAAATTACCCATGATGTTAATCGGGTCTTGATTCGCTTGACGCTGCTG	-1
CCGATTAACATCATTAGGGAAAATGATGTTAATCGGGTCTTGATTCGCTTGACGCTGCTG	-1
CCGATTAACATCAAAATTCCCTCTGATGTTAATCGGGTCTTGATTCGCTTGACGCTGCTG	1
CCGATTAACATCAAGCCCCCCCATGATGTTAATCGGGTCTTGATTCGCTTGACGCTGCTG	-1
CCGATTAACATCAGCTTCCCCCCTGATGTTAATCGGGTCTTGATTCGCTTGACGCTGCTG	1
CCGATTAACATCAGGGAAACCACTGATGTTAATCGGGTCTTGATTCGCTTGACGCTGCTG	-1
CCGATTAACATCAAAGCTTCCCCTGATGTTAATCGGGTCTTGATTCGCTTGACGCTGCTG	1
CCGATTAACATCAGGGGAACTTATGATGTTAATCGGGTCTTGATTCGCTTGACGCTGCTG	1
CCGATTAACATCACGGAAATACCTGATGTTAATCGGGTCTTGATTCGCTTGACGCTGCTG	-1
CCGATTAACATCAGGGAAAGGTATGATGTTAATCGGGTCTTGATTCGCTTGACGCTGCTG	-1
CCGATTAACATCAAGGGGGTTTATGATGTTAATCGGGTCTTGATTCGCTTGACGCTGCTG	1
